Molecular target: pp-JNK1 (activated, phosphorylated JNK1) (human) (UniProt P45983)
Assay: in vitro kinase assay fitted with a kinetic model; 5 nM pp-JNK or pp-p38, MBP-ATF2(19-100) substrate 0.5-100 uM, 5 mM ATP, kinase buffer; p-T71 and p-T69/T71 by quantitative dot-blots; binding rates (kon, koff) and reaction rates fitted simultaneously with the BioNetGen model (PyBioNetFit)
Readout Label: pKd
A value of pKd is the negative decimal logarithm of a concentration given in moles per litre.

The reported value for MBP-ATF2(19-100)-WT (domain or fragment) MSDDKPFLCTAPGCGQRFTNEDHLAVHKHKHEMTLKFGPARNDSVIVADQTPTPTRFLKNCEEVGLFNELASPFENEFKKAS in terms of pKd is 5.46

Just for reference, paper PMC7666158 is where these values come from.
